B1: PDZK1 (parent)
chain: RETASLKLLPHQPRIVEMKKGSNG

# Variants of: B1
# procedure.summary: protein stability index of a GFP-peptide fusion (GPS, HEK-293T) (PSI 1-6); higher = more stable;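 further: lentivirally expressed fusions sorted by FACS into six bins by GFP to DsRed ratio, PSI derived from sequencing read proportions per bin multiplied by bin number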
# particulars: c terminus: a fixed tail appended
reported.property: protein stability index

Reference set, count: 3
mutation.descriptor	protein stability index
L6Q	3.9
V16F	4.05
L6W	2.98

We next turn to a different variant, shown below.
Specify reported protein stability index for the variant shown: A4L 3.05

src = the supplement of paper PMC10567573
